Tested on: Escherichia coli
Method summary: Growth inhibition test in liquid medium (OD600)
Format: cell-based
Assay context: Escherichia coli; E. coli; 4-parameter logistic fit
Quantity name: pIC50
Here pIC50 is given on a logarithmic scale as minus log10 of the concentration in mol/L.

Task: # get_value(readout='pIC50', item= CCCC(=O)O [Butyrate, butyrate] )
Output: 1.21

----------
In this section, each of the compounds is paired with its reported IC50.
Test system: V. campbellii and A. hydrophila
Method summary: Growth inhibition test, ranges stated over two G− pathogens (Example 8)
Assay type: cell-based, Vibrio campbellii; Aeromonas hydrophila
Assay context: range over V. campbellii and A. hydrophila

Task: # get_value(readout='IC50', item= CC(O)CC(=O)O (centres unmarked) [3-HB, 3-hydroxybutyrate] )
Output: 53 to 58 mM

Task: # get_value(readout='IC50', item= CCCC(=O)O [Butyrate, butyrate] )
Output: 5.8 to 39.7 mM

Data origin: patent US20230048349A1
